- Test system: Hec59 + Chr2
- EXPERIMENTAL DETAILS: Cell viability assay (resazurin)
- Type: cell-based
- MEASUREMENT CONDITIONS: 120 h, Cancer, endometrioid adenocarcinoma, five day incubation
OBSERVED PROPERTY: pEC50
# log scale: pEC50 equals minus log10 of the concentration in mol/L

- O=C(Nc1ccc(I)cc1)N1CCC(n2c(=O)[nH]c3c(Br)cccc32)CC1: 4.80

Kindly consider the entry below.
Exercise: Look up pEC50: O=C(Nc1ccc(Cl)c(Cl)c1)N1CCC(n2c(=O)[nH]c3c(-c4ccc(CO)nc4)cccc32)CC1
Solution: 4.77
